Recorded values, source PubChem BioAssay (NCI).

# Test system: NCI-H460 lung
# testProtocol: NCI tumour cell line growth inhibition, 48 h
assayEndpoint: TGI

Previously resolved entries follow.
>>> recordedmeasurement("O[C@@H]1C=C[C@]23CCN(Cc4cc5c(cc42)OCO5)[C@@H]3C1")
"> 100 µM"
>>> recordedmeasurement("CC[C@@]1(O)C(=O)OCc2c1cc1n(c2=O)Cc2c-1nc1ccc(O)cc1c2[Si](C)(C)C(C)(C)C")
"0.0263 µM"
>>> recordedmeasurement("NCCCN(CCCCN(CCCN)C(=O)OCc1ccccc1)C(=O)OCc1ccccc1")
"> 100 µM"
>>> recordedmeasurement("CC1CC[C@@]2(OC1)O[C@H]1[C@H](O)[C@H]3[C@@H]4CC[C@H]5C[C@@H](OC6OC(CO)C(OC7OC(CO)C(O)C(OC8OCC(O)C(O)C8O)C7OC7OC(CO)C(O)C(O)C7OC7OC(CO)C(O)C(O)C7O)C(O)C6O)[C@H](O)C[C@]5(C)[C@H]4CC[C@]3(C)[C@H]1[C@@H]2C (stereo partly specified)")
"> 10 µM"
>>> recordedmeasurement("C=CO/N=[N+](\\[O-])N(CC)CC")
"> 100 µM"

// input: 3 compounds below; output: TGI for each
1. Cc1ccc2nc3ccccc3c(NCc3ccc(Cl)cc3)c2c1
2. O=C1COc2cc(N3CCN(c4cccc(C(F)(F)F)c4)CC3)ccc2N1
3. Fc1ccc(-c2ncn(C3CCNCC3)c2-c2ccnc(Oc3ccc4c(c3)OCO4)n2)cc1

Given back:
11.1 µM
> 100 µM
> 25 µM

For each of the items listed, what is its TGI?
1. Cc1cn2c(/C=C3/C(=O)Nc4c3ccc3ccccc43)c(C(F)(F)F)nc2s1
2. CCCn1c2c(c3c(O)cccc31)C(=O)c1ccccc1-2

Given back:
["25.3 µM", "> 100 µM"]

Dear reader, for each entry below, please note its TGI.
1. Nc1ccc(-c2nc3ccccc3s2)cc1Cl
2. O=C(COc1ccc(OCC(=O)N2C(=O)CC(=O)N(c3ccc(Cl)cc3)C2=S)cc1)N1C(=O)CC(=O)N(c2ccc(Cl)cc2)C1=S
3. CN(C)C(=O)Nc1nc2cc(Cl)c(Cl)cc2[nH]1
4. O=c1[nH]nc(-c2ccccc2)n1/N=C/c1ccc([N+](=O)[O-])o1

Given back:
> 100 µM
> 100 µM
30 µM
> 22.6 µM

Give TGI for each of the items listed below.
1. Cn1nc2ccc(Nc3cc(=O)[nH]c4ccc5nn(C)nc5c34)cc2n1
2. O=C(Oc1cccc(Cl)c1)c1ccccc1Nc1ccnc(C(F)(F)F)c1
3. Fc1cccc(F)c1C1SCc2nc3cc(Cl)c(Cl)cc3n21 (stereo unspecified)
4. COC(C)(C)[C@@H](O)[C@H](O)C[C@H](C)C1=C2CC[C@@H]3[C@@]4(C)CC[C@@H](OC(C)=O)C(C)(C)[C@@H]4C[C@@H](OC4OC(COC(C)=O)C(O)C(O)C4O)[C@@]3(C)[C@]2(C)CC1 (stereo partly specified)
5. N#CC(CCN1CCC(Nc2ccccc2)(c2nnnn2C2CCCCC2)CC1)(c1ccccc1)c1ccccc1
6. CC(=O)n1cc(C2CC23N=C(c2ccccc2)OC3=O)c2ccccc21 (stereo unspecified)
7. CN1CCN(Cc2c[nH]c3c2C(=O)c2c(c(O)c4ccccc4c2O)C3=O)CC1
8. NC(=N\N=C/c1ccc(O)cc1)/C(N)=N\N=C/c1ccc(O)cc1

Given back:
1: > 100 µM; 2: 43.7 µM; 3: > 100 µM; 4: 25.5 µM; 5: > 100 µM; 6: > 64.9 µM; 7: 17.9 µM; 8: > 100 µM
